Experiment: Half life in CD-1 mouse at 3 mg/kg, iv
Assay type: ADME, organism-based
Conditions: in vivo
VALUE_TYPE: half-life (min)

P: C/C(=C\COc1ccccc1Cn1c(C)cnc1-c1ccc(OC(F)(F)F)cc1)CCC(=O)O
Q: C/C(=C\COc1ccccc1Cn1c(C)cnc1-c1ccc(-c2ccco2)cc1)CCC(=O)O
R: C/C(=C\COc1ccccc1Cc1c(C)nnn1-c1ccc(-c2ccco2)cc1)CCC(=O)O
S: C/C(=C\COc1ccccc1Cc1c(-c2ccc(-c3ccco3)cc2)ncn1C)CCC(=O)O
Please list these in order of increasing half-life. Thank you! Please write the labels in the order that was asked for.
R, Q, S, P
(R: 12 min, Q: 30 min, S: 48 min, P: 186 min)

P: Cc1cnc(-c2ccc(-c3ccco3)cc2)n1Cc1ccccc1OCCCCC(C)(C)C(=O)O
Q: C/C(=C\COc1ccccc1Cc1c(C)n[nH]c1-c1ccc(-c2ccco2)cc1)CCC(=O)O
Which is greater in half-life, the first item P or the second item Q ? Answer by stating the label of the chosen item.
P
(P: 144 min, Q: 24 min)

###

Experiment: Protein binding in rat plasma
Assay type: ADME, cell-free
Conditions: read-out: PPB (converted)
VALUE_TYPE: fraction unbound
Reply with the value as a number alone.

I'd like to know its fraction unbound. The compound in question is Cc1cnc(-c2ccc(OC(F)(F)F)cc2)n1Cc1ccccc1OCCC[C@@H](C)CC(=O)O
0.004

###

Assay: Protein binding in human plasma
Type: ADME, cell-free
Conditions: read-out: PPB
VALUE_TYPE: fraction unbound
Reply with the value as a number alone.

I'd like to know its fraction unbound. The compound in question is Cc1cnc(-c2ccc(OC(F)(F)F)cc2)n1Cc1ccccc1OCCC[C@@H](C)CC(=O)O
0.001

###

Experiment: Oral bioavailability in cynomolgus monkey at 10 mg/kg
Format: ADME, organism-based, Macaca fascicularis
Settings: in vivo
VALUE_TYPE: bioavailability (%)
Value expressed in %; do not type the unit.

I'd like to know its bioavailability. The molecule in question is Cc1cnc(-c2ccc(OC(F)(F)F)cc2)n1Cc1ccccc1OCCC[C@@H](C)CC(=O)O
13

###

Biological target: Peroxisome proliferator-activated receptor delta (Homo sapiens)
Sequence (Q03181 whole entry): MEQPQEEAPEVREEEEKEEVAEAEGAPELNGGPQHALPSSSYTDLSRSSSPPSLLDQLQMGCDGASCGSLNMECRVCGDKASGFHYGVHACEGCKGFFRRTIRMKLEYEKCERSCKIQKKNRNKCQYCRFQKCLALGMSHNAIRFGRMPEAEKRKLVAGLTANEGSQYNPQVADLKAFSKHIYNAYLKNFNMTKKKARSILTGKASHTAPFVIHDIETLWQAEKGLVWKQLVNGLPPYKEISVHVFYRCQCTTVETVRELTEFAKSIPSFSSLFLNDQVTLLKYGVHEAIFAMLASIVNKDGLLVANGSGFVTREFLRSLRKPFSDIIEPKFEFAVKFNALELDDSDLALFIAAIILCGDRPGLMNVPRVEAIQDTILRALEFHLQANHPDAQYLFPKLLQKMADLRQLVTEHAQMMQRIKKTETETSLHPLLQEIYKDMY
pEC50: −log10 of the molar value.
VALUE_TYPE: pEC50

P: C/C(=C\COc1ccccc1Cc1sc(C)nc1-c1ccc(-c2ccco2)cc1)CCC(=O)O
Q: Cc1ccc(-c2ncc(C)n2Cc2ccccc2OCCC[C@@H](C)CC(=O)O)cc1
Which is greater in pEC50, the first item P or the second item Q ? Answer by stating the label of the chosen item.
P

1: C/C(=C\COc1ccccc1Cc1c(C)nnn1-c1ccc(-c2ccco2)cc1)CCC(=O)O
2: C/C(=C\COc1ccccc1Cc1c(C)ncn1-c1ccc(-c2ccco2)cc1)CCC(=O)O
Could you check which of 1 and 2 has a smaller value for pEC50? Answer by stating the label of the chosen item.
2
(2: 7.23, 1: 8.08)

The measured values listed here are drawn from ChEMBL document CHEMBL4715826.
